Test: Quantum yield ϕΔ in MeOH
Type: physicochemical
Measured ϕΔ MeOH) accompanies every entry in the list below.
The answer should be written as a number, with no unit following it.

{"smilesInput": "O=C1C(=Cc2ccc(-c3ccc(C(F)(F)F)cc3)o2)SC(=S)N1CCN1CCOCC1", "result": 0.115}
{"smilesInput": "CCCN1C(=O)/C(=C/c2ccc(-c3ccc(C(F)(F)F)cc3)o2)SC1=S", "result": 0.182}
{"smilesInput": "O=C1C(=Cc2ccc(-c3ccccc3)o2)SC(=S)N1CCN1CCOCC1", "result": 0.086}
{"smilesInput": "CCCN1C(=O)/C(=C/c2ccc(-c3cc(OC)c(OC)c(OC)c3)o2)SC1=S", "result": 0.028}
{"smilesInput": "CCCN1C(=O)/C(=C/c2ccc(-c3ccc(O)cc3)o2)SC1=S", "result": 0.007}

[in] So what's the measured ϕΔ MeOH) for this one? CCCN1C(=O)/C(=C/c2ccc(-c3ccccc3)o2)SC1=S
[out] 0.109

[in] Now the compound CCCN1C(=O)/C(=C/c2ccc(-c3ccc(F)cc3)o2)SC1=S
[out] 0.075

[in] Now the compound CCCN1C(=O)/C(=C/c2ccc(-c3ccc(OC)cc3)o2)SC1=S
[out] 0.015

====

Tested on: HeLa cells
Experiment: Light-induced and dark cytotoxicity, CCK-8 assay, HeLa cells
Type: cell-based
Settings: Homo sapiens, HeLa, light or radiation study; blue light, exposure light energy density 0.45 J/cm^2; 24 hours; mean ± SD; read-out: Hela cells Exposure IC50
endpointLabel: pIC50
Just so you know, pIC50 here is -log10 of the concentration in molar units; reply with that number alone.

Below are worked cases with known answers.
{"compound": "CCCN1C(=O)/C(=C/c2ccc(-c3ccc(C(F)(F)F)cc3)o2)SC1=S [BW-PS-106]", "result": 5.53}
{"compound": "CCCN1C(=O)/C(=C/c2ccc(-c3ccc(F)cc3)o2)SC1=S [BW-PS-102]", "result": 5.83}
{"compound": "CCCN1C(=O)/C(=C/c2ccc(-c3cc(OC)c(OC)c(OC)c3)o2)SC1=S [BW-PS-105]", "result": 5.67}
{"compound": "CCCN1C(=O)/C(=C/c2ccc(-c3ccccc3)o2)SC1=S [BW-PS-101]", "result": 5.86}
{"compound": "CCCN1C(=O)/C(=C/c2ccc(-c3ccc(OC)cc3)o2)SC1=S [BW-PS-104]", "result": 5.57}

Here's the next entry for you.
[in] Tell me reported pIC50 for CCCN1C(=O)/C(=C/c2ccc(-c3ccc(O)cc3)o2)SC1=S [BW-PS-103] , tested with HeLa cells.
[out] 5.45
